Data provenance: patent US5994334A

- Assayed Target: Human Prostatic 5α-Reductase (Homo sapiens, UniProt P31213)
- Sequence (P31213 1-254): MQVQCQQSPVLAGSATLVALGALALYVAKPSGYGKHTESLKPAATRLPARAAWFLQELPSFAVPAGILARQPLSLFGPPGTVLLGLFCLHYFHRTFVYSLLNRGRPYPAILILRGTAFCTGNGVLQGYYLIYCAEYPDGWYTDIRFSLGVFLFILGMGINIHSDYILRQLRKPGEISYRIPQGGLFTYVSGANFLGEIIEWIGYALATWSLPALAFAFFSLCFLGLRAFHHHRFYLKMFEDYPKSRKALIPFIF
- Experimental Protocol: Inhibition of human prostatic 5α-reductase (prostatic microsomes, [3H]testosterone)
- Particulars: read-out: IC50 5α-reductase; Table 2
Attribute: pIC50
In simple prose, pIC50 is minus the logarithm base ten of a concentration in moles per litre.

Molecule: CC(=NO)[C@H]1CC[C@H]2[C@@H]3CCC4=CC(=NO)CC[C@]4(C)[C@H]3CC[C@]12C [Compound I-42]
Quantity Kind: pIC50
Reading: 5.69

Then this molecule:
Identify pIC50 associated with the molecule CC(=NO)[C@H]1CC[C@H]2[C@@H]3CCC4=CC(=NO)CC[C@]4(C)[C@H]3CC[C@]12C [Compound I-43]
5.90
